Data provenance: BigSolDB 2.1

Details: in n-hexyl acetate, 299.35 K

{"Entry Smiles": "CCCCCCCCCCCCCCCCCC(=O)OCCO", "solubility (mole fraction)": 0.0423}

---

Details: in cyclohexane, 304.75 K
Assay Endpoint: solubility (mole fraction)

{"Entry Smiles": "CCCCCCCCCCCCCCCCCCCCCC(=O)OCCO", "Result": 0.0102}

---

Conditions: in cyclohexane, 311.05 K

{"Entry Smiles": "CCCCCCCCCCCCCCCCCCCCCC(=O)OCCO", "solubility (mole fraction)": 0.0766}

---

Details: in 1,1,1-trichloroethane, 302.35 K

{"Entry Smiles": "CCCCCCCCCCCCCCCCCCCCCC(=O)OCCO", "solubility (mole fraction)": 0.0571}
